Quick reference: Mut1 Binding (% wt) of the listed items.
target under test: T1, recombinant human CFD mutant 1 (R157A, R207A), His-tagged (human, UniProt P00746 26-253)
T1 construct: positions are linear positions in the mature protein; also called rhCFD-mut1-His; Mut1
T1 sequence (P00746 26-253 R182A/R232A limits assumed): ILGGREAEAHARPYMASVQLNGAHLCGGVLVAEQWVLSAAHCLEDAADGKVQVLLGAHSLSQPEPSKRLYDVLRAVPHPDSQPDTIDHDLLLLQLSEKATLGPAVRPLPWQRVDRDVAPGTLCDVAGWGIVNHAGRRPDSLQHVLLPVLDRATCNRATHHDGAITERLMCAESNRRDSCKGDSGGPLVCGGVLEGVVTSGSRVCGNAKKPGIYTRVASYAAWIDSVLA
method summary: ELISA
Give the value in % wt but do not write % wt after it.

# binder, value kind, unit annotation, data value
records = [
    ("KCD103 (antibody, V domains shown, chimeric) VH: QVQLQQPGAELVRPGTSVKLSCKASGYTFTSYWMHWVKQRPGQGLEWIGVIDPSDSYTKYNQKFKDKATLTVETSSSTAYMQLSSLTSEDSAVYYCAGNGYDGSMDYWGQGTSVTVSS VL: DIQMTQTTSSLSASLGDRVTISCRASQDISNSLNWYQQKPDGTVKLLIYYTSRLHSRVPSRFSGSGSGTDYSLTISNLDQEDIATYFCQQANTLPYTFGGGTKLEIK", "Mut1 Binding (% wt)", "% wt", 65.2),
    ("KCD101 (antibody, V domains shown, chimeric) VH: QVQLQQPGAELVRPGTSVKLSCKASGYTFTSYWMHWVKQRPGQGLEWIGVIDPSDSYTNYNQKFKGKATLTVDTSSSTAYMQLSSLTSEDSAVYYCGRNGYDGSMDYWGQGTSVTVSS VL: DIQMTQTTSSLSASLGDRVTISCRASQDISNYLNWYQQKPDGTVKLLIYYPSRLHSGVPSRFSGSGSGTDYSLTISNLEQEDFATYFCQQGNTLPYTFGGGTKLEIK", "Mut1 Binding (% wt)", "% wt", 65.8),
]

Read the next record carefully.
Return reported Mut1 Binding (% wt). Input binder: KCD131 (antibody, V domains shown, chimeric) VH: QVQLQQSGPELVKPGASVKISCKASAYTFTDYYINWVKQRPGQGPEWIGWIFPGSNSTYSNEKFEVKATLTVDESSSTAYMLLSSLTSEDSAVYFCARLGYFGSSYHALDYWGQGTSVTVSS VL: DIQMTQSPASLSVSVGETVTITCRASENIYSHLAWFQQKQGKSPRLLVYSATNLPDGVPSRFSGSGSGTQYSLKINILQSEDFGSYYCQHFWGTPWTFGGGTKLEIK 80.7
